TEST_SYSTEM: human TLR8 (Homo sapiens, UniProt Q9NR97)
Sequence (Q9NR97 27-1041): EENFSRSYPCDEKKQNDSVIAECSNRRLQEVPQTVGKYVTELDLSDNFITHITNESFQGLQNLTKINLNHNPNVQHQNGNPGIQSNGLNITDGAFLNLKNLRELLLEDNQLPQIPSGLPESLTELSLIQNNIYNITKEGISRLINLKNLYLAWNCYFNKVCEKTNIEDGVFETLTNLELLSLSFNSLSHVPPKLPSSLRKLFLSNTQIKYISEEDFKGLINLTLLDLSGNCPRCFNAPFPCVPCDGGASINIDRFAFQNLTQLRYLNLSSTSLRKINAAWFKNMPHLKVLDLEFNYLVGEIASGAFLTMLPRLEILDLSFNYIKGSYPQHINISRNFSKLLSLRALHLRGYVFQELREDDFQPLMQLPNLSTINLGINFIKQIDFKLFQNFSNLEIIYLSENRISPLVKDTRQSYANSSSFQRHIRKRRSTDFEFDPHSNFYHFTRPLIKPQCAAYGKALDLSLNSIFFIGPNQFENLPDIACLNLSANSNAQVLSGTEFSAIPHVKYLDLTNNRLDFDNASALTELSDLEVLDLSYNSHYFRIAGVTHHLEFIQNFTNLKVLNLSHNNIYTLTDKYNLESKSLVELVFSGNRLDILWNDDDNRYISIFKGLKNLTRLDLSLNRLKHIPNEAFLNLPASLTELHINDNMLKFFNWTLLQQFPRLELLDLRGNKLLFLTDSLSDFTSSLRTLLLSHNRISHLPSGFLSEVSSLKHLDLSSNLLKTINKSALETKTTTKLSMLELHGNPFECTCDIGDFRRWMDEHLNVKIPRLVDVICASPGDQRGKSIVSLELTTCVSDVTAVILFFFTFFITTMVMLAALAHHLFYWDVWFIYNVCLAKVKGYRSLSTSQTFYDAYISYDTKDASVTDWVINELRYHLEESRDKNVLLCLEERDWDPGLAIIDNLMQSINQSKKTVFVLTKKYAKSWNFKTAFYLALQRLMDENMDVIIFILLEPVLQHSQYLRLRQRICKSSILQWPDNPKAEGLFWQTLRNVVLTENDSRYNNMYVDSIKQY
MEASUREMENT_DESCRIPTION: TLR8 inhibition reporter assay (HEK-Blue cells, SEAP reporter, R848 stimulation)
DETAILS: HEK-Blue cells overexpressing human TLR8, SEAP reporter, R848 15.9 μM
Excerpt: TLR7/8/9 Inhibition Reporter Assays HEK-Blue™-cells (Invivogen) overexpressing human TLR7, TLR8 or TLR9 receptors were used for screening inhibitors of these receptors using an inducible SEAP (secreted embryonic alkaline phosphatase) reporter gene under the control of the IFN-β minimal promoter fused to five NF-κB and AP-1-binding sites. […]
pIC50: −log10 of the molar value.
Give pIC50 for every item shown.

Challenge: Notebook: pull reported pIC50 for human TLR8 (Homo sapiens, UniProt Q9NR97), entry Cc1cc2ncnn2nc1-c1[nH]c2ccc(C3CCN(C(=O)CN(C)C)CC3)cc2c1C(C)C [Example 455]
Response given: > 7.00

Challenge: Same question for Cc1cc(-c2[nH]c3ccc(C4CCN(C5CCOCC5)CC4)cc3c2C(C)C)cn2nnnc12 [Example 698] please.
Response given: > 7.00

Challenge: // repeat for CC(C)c1c(-c2ccnc3[nH]ncc23)[nH]c2ccc(C3CCN(C(=O)CS(C)(=O)=O)CC3)cc12 [Example 614] and report
Response given: > 7.00

Challenge: Next: CCc1c(-c2ccnc3[nH]cc(Cl)c23)[nH]c2ccc(C3CCNCC3)cc12 [Example 39]
Response given: 6.00 to 7.00

Challenge: CC(C)c1c(-c2ccnc3[nH]ncc23)[nH]c2ccc(C3CCN(Cc4ccc(OCCN(C)c5ccccn5)cc4)CC3)cc12 [Example 894] ?
Response given: > 7.00

Challenge: Now give it for CC(C)c1c(-c2cnc3ncccn23)[nH]c2ccc(C3CCN(CC(=O)N(C)C)CC3)cc12 [Example 290] too.
Response given: > 7.00

Challenge: Subsequent entry: Cc1cc(-c2[nH]c3ccc(C4CCNCC4)cc3c2C(C)C)cc2ncnn12 [Example 154]
Response given: > 7.00

Challenge: Then what about the molecule Cc1cc(-c2[nH]c3ccc(C4CCN(C5COC5)CC4)cc3c2C(C)C)cc2cnnn12 [Example 744] ?
Response given: > 7.00

Challenge: And what about the molecule CCc1c(-c2cnc3cnccn23)[nH]c2ccc(C3CCNCC3)cc12 [Example 28] ?
Response given: 4.30 to 6.00

Challenge: Please do the same for Cc1cn2cc(-c3[nH]c4ccc(C5CCN(Cc6cnn(C)c6)CC5)cc4c3C(C)C)cc(C(F)(F)F)c2n1 [Example 934] as well.
Response given: 6.00 to 7.00

Challenge: How about this molecule: Cc1cc(-c2[nH]c3ccc(C4CCN(CCS(C)(=O)=O)CC4)cc3c2C(C)C)cc2cnnn12 [Example 795]
Response given: > 7.00

Challenge: Subsequent entry: Cc1cccc2cc(CN3CCC(c4ccc5[nH]c(-c6ccnc7[nH]ncc67)c(C(C)C)c5c4)CC3)c(Cl)nc12 [Example 922]
Response given: 4.30 to 6.00

Challenge: Further, for CNC(=O)CN1CCC(c2ccc3[nH]c(-c4ccn5cnnc5c4)c(C(C)C)c3c2)CC1 [Example 306] ?
Response given: 6.00 to 7.00

Challenge: What about this molecule? CC(=O)N1CCC[C@H]1C(=O)N1CCC(c2ccc3[nH]c(-c4ccnc5[nH]ncc45)c(C(C)C)c3c2)CC1 [Example 566]
Response given: 6.00 to 7.00

Challenge: Input CC(C)c1c(-c2ccnc3[nH]ncc23)[nH]c2ccc(C3CCN(CCCN4CCOCC4)CC3)cc12 [Example 857]
Response given: 4.30 to 6.00

Challenge: Would you kindly repeat that for Cc1cc(-c2[nH]c3ccc(C4CCN(C5CCOCC5)CC4)cc3c2C(C)C)cc2cncn12 [Example 707] ?
Response given: > 7.00

Challenge: How about COc1cc(-c2[nH]c3ccc(C4CCN(CC(N)=O)CC4)cc3c2C(C)C)nn2ncnc12 [Example 284] ?
Response given: > 7.00

Challenge: Similarly, CNC(=O)CN1CCC(c2ccc3[nH]c(-c4cn5ccnc5c(Cl)c4C)c(C(C)C)c3c2)CC1 [Example 414] ?
Response given: > 7.00

Challenge: Cool, now Cc1cc2nnnn2cc1-c1[nH]c2ccc(C3CCNCC3)cc2c1C(C)C [Example 76]
Response given: > 7.00

Challenge: Another: COc1cc(-c2[nH]c3ccc(C4CCN(C5CCOCC5)CC4)cc3c2C(C)C)nn2ncnc12 [Example 692]
Response given: > 7.00

Challenge: // same read-out, input: CC(C)c1c(-c2ccnc3[nH]ncc23)[nH]c2ccc(C3CCN(C4CCNCC4)CC3)cc12 [Example 832]
Response given: > 7.00

Challenge: Same read-out for CCc1c(-c2cnc3[nH]c(=O)[nH]c3c2)[nH]c2ccc(C3CCNCC3)cc12 [Example 180] ?
Response given: 4.30 to 6.00

Challenge: Can you check Cc1cc(-c2[nH]c3ccc(C4CCN(C(=O)CN5CCC(F)CC5)CC4)cc3c2C(C)C)cn2nnnc12 [Example 474] next?
Response given: > 7.00

Challenge: // query: Cc1cc(-c2[nH]c3ccc(C4CCN(C(=O)CCN5CCC(F)(F)C5)CC4)cc3c2C(C)C)cn2nnnc12 [Example 626]
Response given: 6.00 to 7.00

Challenge: Same read-out for CNCC(=O)N1CCC(c2ccc3[nH]c(-c4cn5cc(C)nc5cc4C)c(C(C)C)c3c2)CC1 [Example 510] ?
Response given: 4.30 to 6.00

Challenge: Now this one: CC(C)c1c(-c2nc3ccnn3cc2F)[nH]c2ccc(C3CCNCC3)cc12 [Example 147]
Response given: > 7.00

Challenge: Then what about the molecule CNC(=O)CN1CCC(c2ccc3[nH]c(-c4ccn5nncc5c4)c(C(C)C)c3c2)CC1 [Example 303] ?
Response given: 6.00 to 7.00

Challenge: Now consider Cc1n[nH]c2nccc(-c3[nH]c4ccc(C5CCN(Cc6cnc[nH]6)CC5)cc4c3C(C)C)c12 [Example 875] .
Response given: > 7.00

Challenge: Another molecule: CCCN1CCC(c2ccc3[nH]c(-c4cc(C)c5c(c4)ncn5C)c(C(C)C)c3c2)CC1 [Example 956]
Response given: 6.00 to 7.00

Challenge: Same for CNC(=O)CN1CCC(c2ccc3[nH]c(-c4cc(F)c5nccn5c4)c(C(C)C)c3c2)CC1 [Example 410]
Response given: 6.00 to 7.00

Challenge: # iterate: Cc1cc(-c2[nH]c3ccc(C4CCN(C(=O)CN(C)C)CC4)cc3c2C(C)C)cn2nncc12 [Example 467]
Response given: 4.30 to 6.00

Every entry's value here was drawn from patent US11739098B2.
